Sourced from paper PMC10010643

Experiment: Urine PK, Part A single oral doses in healthy participants
Type: in vivo, human
Conditions: human, urine, oral, 400 mg, single dose 400 mg (8 × 50 mg), fasted; read-out: CLR, geometric mean (CV%) (converted)
Excerpt: A further two cohorts were recruited. […] Each individual participated in one treatment period only, with the exception of the food-effect cohort (cohort A3) in which there were two treatment periods separated by at least 7 days washout. Participants resided at the Clinical Research Unit (CRU) from 1 day ahead of dosing (day − 1) to day 3 and returned for a follow-up visit 5–7 days after their final dose. […]
Endpoint: CL renal
Please don't drop the unit; write it after the number.

Exercise: Report CL renal for OC[C@H]1O[C@H](Sc2cncc(Br)c2)[C@H](O)[C@@H](n2cc(-c3cc(F)c(F)c(F)c3)nn2)[C@H]1O please.
Solution: 44.5 mL/min
